test system: NCI-H2228; test: relative viability (nuclei count vs DMSO), 5 days (fraction); higher = more cells survive; conditions: first compound 8 µM
measured-quantity: relative viability

molecule	measured-quantity	assay-value
C=C1C(=O)O[C@@H](CCCCCCCC)[C@@H]1C(=O)O [C-75] + Cc1nc(NC(=O)N2CCC[C@H]2C(N)=O)sc1-c1ccnc(C(C)(C)C(F)(F)F)c1 [Alpelisib] (partner 2 µM)	relative viability	0.744
C=C1C(=O)O[C@@H](CCCCCCCC)[C@@H]1C(=O)O [C-75] + CS(=O)(=O)CCNCc1ccc(-c2ccc3ncnc(Nc4ccc(OCc5cccc(F)c5)c(Cl)c4)c3c2)o1 [Lapatinib] (partner 2 µM)	relative viability	1.03
C=C1C(=O)O[C@@H](CCCCCCCC)[C@@H]1C(=O)O [C-75] + COc1cccc2cc(-c3nc([C@H]4CC[C@H](C(=O)O)CC4)n4ncnc(N)c34)[nH]c12 [OSI-027] (partner 0.5 µM)	relative viability	0.517
